experiment: physchem; settings: buffer, pH 7.8
reported-endpoint: half-life at 200 mM
Please state the number and follow it with the unit.

Return half-life at 200 mM (reported value) for this compound: CC(C)[C@H](O)[C@@]12NC(=O)[C@H](C)[C@@H]1OC2=O [Compound 2, clasto-lactacystin β-lactone]
13 min

----------
biological target: PA28-activated 20S proteasome (Homo sapiens); construct: from tissue; assay: Inactivation of the chymotrypsin-like activity of PA28-activated 20S proteasome (Suc-Leu-Leu-Val-Tyr-AMC); format: biochemical; conditions: rate of enzyme inactivation; chymotrypsin-like activity of PA28-activated 20S proteasome, 37° C., pH 8.0; read-out: Kobs/[I]
reported-endpoint: kinact/KI (M⁻¹ s⁻¹)
# unit: M⁻¹ s⁻¹ | format: bare number

Reference set (5 entries):
# compound-structure-string, kinact/KI, M⁻¹ s⁻¹
records = [
    ("CCCC[C@H]1C(=O)N[C@@]2([C@@H](O)C(C)C)C(=O)O[C@@H]12", 38000),
    ("CO[C@H]1C(=O)N[C@@]2([C@@H](O)C(C)C)C(=O)O[C@@H]12", 82200),
    ("CC(C)C[C@H]1C(=O)N[C@@]2([C@@H](O)C(C)C)C(=O)O[C@@H]12", 17000),
    ("CC[C@H]1C(=O)N[C@@]2([C@@H](O)C(C)C)C(=O)O[C@@H]12", 39000),
    ("CC(C)[C@H](O)[C@@]12NC(=O)[C@H](C)[C@@H]1OC2=O", 20000),
]

From here, focus on the item given below.
Give the measured kinact/KI for `CCC[C@H]1C(=O)N[C@@]2([C@@H](O)C(C)C)C(=O)O[C@@H]12`
46500
